# TARGET: mTOR kinase (Homo sapiens)
# Construct: FLAG; made in house
# METHOD_SUMMARY: In vitro mTOR kinase assay, Test (a)(i) (AlphaScreen)
# Assay type: biochemical
# CONDITION_DESCRIPTION: recombinant FLAG-tagged mTOR (1362-2549), ATP 20 μM; read-out: Test (a)(i) IC50
Below is a list of entries, each paired with its recorded pIC50 value.
Conceptually, pIC50 converts a concentration in mol/L into minus its log10.

query: Fill in reported pIC50 for this entry: C[C@H]1COCCN1c1cc(CS(C)(=O)=O)nc(-c2ccc(NC(=O)CO)cc2)n1 [Example 3]
result: 6.62

###

# Tested on: Serine 473 in Akt
# METHOD_SUMMARY: In vitro phospho-Ser473 Akt assay, Test (c)
# Format: cell-based
# CONDITION_DESCRIPTION: MDA-MB-468 human breast adenocarcinoma cells, 2 hours; read-out: IC50 versus Serine 473 in Akt, Test (c)
ATTRIBUTE_MEASURED: pIC50
In textbook form, pIC50 equals minus log to base ten of the concentration in mol/L.

query: Report pIC50, nothing else, for this molecule: `CN(C)CC(=O)Nc1ccc(-c2nc(CS(C)(=O)=O)cc(N3CCOCC3)n2)cc1`
result: 5.11

###

# TARGET: mTOR kinase (Homo sapiens)
# Construct: FLAG; made in house
# METHOD_SUMMARY: In vitro mTOR kinase assay, Test (a)(i) (AlphaScreen)
# Format: biochemical
# CONDITION_DESCRIPTION: recombinant FLAG-tagged mTOR (1362-2549), ATP 20 μM; read-out: Test (a)(i) IC50
Property: log10 IC50; scope: individual molecules
All values: log10 IC50 [µM].

CS(=O)(=O)Cc1cc(N2CCOCC2)nc(-c2ccc(NC(=O)CC(F)(F)F)cc2)n1 [Example 5aq] = -0.22
CN(C)CC(=O)Nc1ccc(-c2nc(CS(C)(=O)=O)cc(N3CCOCC3)n2)cc1 [Example 5p] = 0.30
Cc1cc(C(=O)Nc2ccc(-c3nc(CS(C)(=O)=O)cc(N4CCOCC4)n3)cc2)n(C)n1 [Example 5af] = 1.00

query: Name the recorded log10 IC50 of the item CS(=O)(=O)Cc1cc(N2CCOCC2)nc(-c2ccc(NC(=O)c3csnn3)cc2)n1 [Example 5as] in your answer.
result: -0.44

query: Quote log10 IC50 reported for CS(=O)(=O)Cc1cc(N2CCOCC2)nc(-c2ccc(NC(=O)c3c[nH]cn3)cc2)n1 [Example 5f] please.
result: -0.02

query: Find the measured log10 IC50 of CCCC(=O)Nc1ccc(-c2nc(CS(C)(=O)=O)cc(N3CCOCC3)n2)cc1 [Example 5b] and report it.
result: -0.17

###

Below: a set of entries, each annotated with reported IC50.
# TARGET: mTOR kinase (Homo sapiens, UniProt P42345)
# Construct: FLAG; made in house
# Sequence (P42345 1362-2549): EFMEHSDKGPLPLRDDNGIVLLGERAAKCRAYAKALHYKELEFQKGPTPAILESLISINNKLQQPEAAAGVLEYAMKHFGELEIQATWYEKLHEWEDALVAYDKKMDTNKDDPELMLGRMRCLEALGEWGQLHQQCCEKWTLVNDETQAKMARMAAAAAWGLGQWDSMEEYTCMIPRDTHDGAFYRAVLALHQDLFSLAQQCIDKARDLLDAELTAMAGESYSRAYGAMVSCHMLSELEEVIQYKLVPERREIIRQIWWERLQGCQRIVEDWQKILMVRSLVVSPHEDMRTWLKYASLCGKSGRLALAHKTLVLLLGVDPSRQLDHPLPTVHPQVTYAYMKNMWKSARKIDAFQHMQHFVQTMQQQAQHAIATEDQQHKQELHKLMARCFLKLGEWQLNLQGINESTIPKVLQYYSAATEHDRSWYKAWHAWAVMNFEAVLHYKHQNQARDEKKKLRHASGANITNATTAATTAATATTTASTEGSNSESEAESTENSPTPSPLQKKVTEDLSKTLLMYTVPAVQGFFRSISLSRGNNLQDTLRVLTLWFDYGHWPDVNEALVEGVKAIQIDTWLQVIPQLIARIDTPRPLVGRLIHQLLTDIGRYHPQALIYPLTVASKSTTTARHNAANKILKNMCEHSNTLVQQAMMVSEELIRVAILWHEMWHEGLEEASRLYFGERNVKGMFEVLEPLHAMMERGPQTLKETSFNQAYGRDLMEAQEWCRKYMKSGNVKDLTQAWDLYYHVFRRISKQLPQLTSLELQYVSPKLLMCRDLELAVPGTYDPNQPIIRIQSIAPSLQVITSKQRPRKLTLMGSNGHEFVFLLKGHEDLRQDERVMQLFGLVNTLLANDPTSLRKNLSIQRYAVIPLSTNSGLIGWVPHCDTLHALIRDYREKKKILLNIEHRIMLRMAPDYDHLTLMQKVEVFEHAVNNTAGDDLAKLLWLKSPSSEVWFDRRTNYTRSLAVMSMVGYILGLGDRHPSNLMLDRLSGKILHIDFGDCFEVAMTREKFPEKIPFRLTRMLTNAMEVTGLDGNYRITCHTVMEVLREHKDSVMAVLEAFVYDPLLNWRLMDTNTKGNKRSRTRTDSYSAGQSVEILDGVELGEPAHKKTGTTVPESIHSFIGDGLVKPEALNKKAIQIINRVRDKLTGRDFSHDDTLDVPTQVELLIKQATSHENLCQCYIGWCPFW
# METHOD_SUMMARY: In vitro mTOR kinase assay, Test (a)(i) (AlphaScreen)
# Type: biochemical
# CONDITION_DESCRIPTION: recombinant FLAG-tagged mTOR (1362-2549), ATP 20 μM; read-out: Test (a)(i) IC50
Write the value in µM as a bare number.

Worked cases, answers included:
Cc1ccc(C(=O)Nc2ccc(-c3nc(CS(C)(=O)=O)cc(N4CCOCC4)n3)cc2)cn1 = 8.09
CS(=O)(=O)Cc1cc(N2CCOCC2)nc(-c2ccc(NC(=O)C3CCC(=O)N3)cc2)n1 (centres unmarked) = 2.86
CS(=O)(=O)Cc1cc(N2CCOCC2)nc(-c2ccc(NC(=O)CN3CCOCC3)cc2)n1 = 9.1
C[C@H]1COCCN1c1cc(CS(C)(=O)=O)nc(-c2cccc(NC(=O)c3ccno3)c2)n1 = 1.98
CS(=O)(=O)Cc1cc(N2CCOCC2)nc(-c2ccc(NC(=O)c3cc[nH]n3)cc2)n1 = 1.81
CS(=O)(=O)Cc1cc(N2CCOCC2)nc(-c2ccc(NC(=O)c3ccc(C#N)nc3)cc2)n1 = 6.2
CS(=O)(=O)Cc1cc(N2CCOCC2)nc(-c2ccc(NC(=O)CCc3ccco3)cc2)n1 = 4.85

Now for a further molecule.
query: For `CS(=O)(=O)Cc1cc(N2CCOCC2)nc(-c2ccc(NC(=O)Cc3ncccn3)cc2)n1` , write its IC50.
result: 7.79
